Values compiled from ChEMBL document CHEMBL1129432.

# tested_target: D(2) dopamine receptor (Rattus norvegicus)
# assay_explanation: Binding affinity towards Dopamine receptor D2 was determined in rat striatum using [3H]- spiperone as radioligand
result_type: IC50 (nM)

# count of solved cases: 8
> print(dat)
                                   compound  uom  assay.result
1  CC1(C)SC(C)(C)N(CCCCN2CCN(c3nsc4ccccc34)CC2)C1=O   nM           201
2  CC1SC2(CCCC2)C(=O)N1CCCCN1CCN(c2csc3cc(Cl)ccc23)CC1 (stereo not drawn)   nM           611
3  CC1(C)SCN(CCCCN2CCN(c3cccc(C(F)(F)F)c3)CC2)C1=O   nM          1640
4  CC1SC2(CCCC2)C(=O)N1CCCCN1CCN(c2csc3cc(F)ccc23)CC1 (stereo not drawn)   nM           954
5       O=C1CSCN1CCCCN1CCN(c2cccc(Cl)c2)CC1   nM          2210
6  CC1(C)SCC(=O)N1CCCCN1CCN(c2nsc3ccccc23)CC1   nM           193
7  CC1SCN(CCCCN2CCN(c3nsc4ccccc34)CC2)C1=O (stereo not drawn)   nM            86
8  O=C1N(CCCCN2CCN(c3csc4ccccc34)CC2)CSC12CCCCC2   nM           218

[A] CSc1cccc(N2CCN(CCCCN3C(=O)CSC3(C)C)CC2)c1
[B] O=C1CSCN1CCCCN1CCN(c2ccc(Cl)cc2)CC1
Exercise: Out of A and B , name the one with the higher IC50. The response must carry the label of the picked entry.
Key: B
(B: 8760 nM, A: 2430 nM)

[a] O=C1N(CCCCN2CCN(c3nsc4ccccc34)CC2)CSC12Cc1ccccc1C2
[b] O=C1N(CCCCN2CCN(c3csc4ccccc34)CC2)CSC12CCCC2
[c] Cc1cccc(N2CCN(CCCCN3CSCC3=O)CC2)c1
Exercise: Put these in order: smallest IC50 first, largest last. Arrange the labels as the request states and list them.
Key: b, a, c
(b: 244 nM, a: 697 nM, c: 12600 nM)

---

# tested_target: 5-hydroxytryptamine receptor 2A (Homo sapiens)
# Sequence (P28223 whole entry): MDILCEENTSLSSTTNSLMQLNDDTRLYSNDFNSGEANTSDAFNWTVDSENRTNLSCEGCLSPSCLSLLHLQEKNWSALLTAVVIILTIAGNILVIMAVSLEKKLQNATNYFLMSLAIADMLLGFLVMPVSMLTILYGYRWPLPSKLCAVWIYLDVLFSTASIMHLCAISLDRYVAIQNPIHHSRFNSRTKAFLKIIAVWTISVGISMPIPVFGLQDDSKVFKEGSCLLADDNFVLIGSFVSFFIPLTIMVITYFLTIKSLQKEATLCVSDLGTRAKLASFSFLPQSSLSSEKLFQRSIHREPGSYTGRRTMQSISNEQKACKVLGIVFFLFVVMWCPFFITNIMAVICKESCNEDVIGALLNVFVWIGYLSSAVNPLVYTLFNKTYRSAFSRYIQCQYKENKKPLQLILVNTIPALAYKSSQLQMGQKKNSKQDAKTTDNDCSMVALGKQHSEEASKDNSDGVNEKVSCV
# assay_explanation: Binding affinity towards human 5-HT2A receptor in BEK cells
pKi: −log10 of the molar value.
result_type: pKi

[a] CC1SC2(CCCC2)C(=O)N1CCCCN1CCN(c2csc3cc(F)ccc23)CC1 (configuration not stated)
[b] CC1SC(C)(C)C(=O)N1CCCCN1CCN(c2csc3cc(F)ccc23)CC1 (configuration not stated)
Exercise: Which entry shows the lesser value of pKi here, a or b ? Response format: the label of the selected entry.
Key: b
(b: 8.10, a: 8.40)

---

# tested_target: Serotonin 2 (5-HT2) receptor (Rattus norvegicus, UniProt P30994+P08909+P14842)
# assay_explanation: Binding affinity towards serotonin 5-HT2 receptor was determined in rat cortex using [3H]spiperone as ligand
result_type: IC50 (nM)

> print(dat)
                                   compound  result.type  assay.result
1  CC1(C)SCN(CCCCN2CCN(c3cccc(C(F)(F)F)c3)CC2)C1=O         IC50            90
2  CC1(C)SCN(CCCCN2CCN(c3nc4ccccc4s3)CC2)C1=O         IC50          2310
3  CC1SC2(CCCC2)C(=O)N1CCCCN1CCN(c2csc3cc(Cl)ccc23)CC1 (stereo not given)         IC50           580
4  CC1(C)SCN(CCCCN2CCN(c3cc4ccccc4cn3)CC2)C1=O         IC50            85
5     O=C1CSCN1CCCCN1CCN(c2ccc3ccccc3n2)CC1         IC50           641
6  CC1(C)SCN(CCCCN2CCN(c3cn(-c4ccccc4)c4ccccc34)CC2)C1=O         IC50           294
7  CC1SC(C)(C)C(=O)N1CCCCN1CCN(c2cn(-c3ccccc3)c3cc(F)ccc23)CC1 (stereo not given)         IC50           119

[I] Cc1ccccc1N1CCN(CCCCN2CSC(C)(C)C2=O)CC1
[II] CC1SC(C)(C)C(=O)N1CCCCN1CCN(c2cn(-c3ccc(F)cc3)c3ccccc23)CC1 (stereo not given)
Exercise: Dear colleague, could you let me know whether I or II has the lower recorded IC50? Thanks. Respond using the label that marks the chosen record.
Key: II
(II: 126 nM, I: 569 nM)

---

# tested_target: 5-hydroxytryptamine receptor 1A (Rattus norvegicus)
# Sequence (P19327 whole entry): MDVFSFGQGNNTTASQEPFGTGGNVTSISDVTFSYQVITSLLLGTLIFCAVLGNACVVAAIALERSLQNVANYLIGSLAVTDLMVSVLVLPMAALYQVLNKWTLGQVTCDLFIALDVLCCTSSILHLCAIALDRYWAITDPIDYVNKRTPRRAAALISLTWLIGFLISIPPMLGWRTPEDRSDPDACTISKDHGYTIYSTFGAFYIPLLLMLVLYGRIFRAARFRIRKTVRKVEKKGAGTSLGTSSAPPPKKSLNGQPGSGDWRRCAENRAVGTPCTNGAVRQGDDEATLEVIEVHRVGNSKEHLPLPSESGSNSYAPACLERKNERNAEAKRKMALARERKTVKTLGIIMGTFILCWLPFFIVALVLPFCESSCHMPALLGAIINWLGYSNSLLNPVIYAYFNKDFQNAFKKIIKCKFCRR
pIC50: −log10 of the molar value.
result_type: pIC50

> print(dat)
                                   molecule  assay.result
1  CC1SC2(CCCC2)C(=O)N1CCCCN1CCN(c2nsc3ccccc23)CC1 (stereo unspecified)          8.52
2  CC1SC(C)(C)C(=O)N1CCCCN1CCN(c2cn(-c3ccccc3)c3cc(F)ccc23)CC1 (stereo unspecified)          5.09
3  CC1SC(C)(C)C(=O)N1CCCCN1CCN(c2nsc3ccccc23)CC1 (stereo unspecified)          8.15
4    Cc1ccccc1N1CCN(CCCCN2CSC(C)(C)C2=O)CC1          7.89

[1] O=C1C(CC(F)(F)F)SCN1CCCCN1CCN(c2nsc3ccccc23)CC1 (stereo unspecified)
[2] O=C1N(CCCCN2CCN(c3cn(-c4ccc(F)cc4)c4ccccc34)CC2)CSC12CCCCC2
Exercise: Field: entry with larger pIC50 (options 1 / 2 ). Label of pick, please.
Key: 1

---

# tested_target: Serotonin 2 (5-HT2) receptor (Rattus norvegicus, UniProt P30994+P08909+P14842)
# assay_explanation: Binding affinity towards serotonin 5-HT2 receptor was determined in rat cortex using [3H]spiperone as ligand
result_type: IC50 (nM)

> print(dat)
                                   molecule  result.type  assay.result
1  O=C1N(CCCCN2CCN(c3csc4ccccc34)CC2)CSC12CCCCC2         IC50           196

[A] CC1SC(C)(C)C(=O)N1CCCCN1CCN(c2nsc3cc(Cl)ccc23)CC1 (stereo not drawn)
[B] CC1SC2(CCCC2)C(=O)N1CCCCN1CCN(c2csc3cc(F)ccc23)CC1 (stereo not drawn)
Exercise: Could you kindly indicate whether A or B has the higher IC50 value? I would appreciate it if you answered with the label of your choice.
Key: A

---

# tested_target: D(2) dopamine receptor (Rattus norvegicus, UniProt P61169)
# Sequence (P61169 whole entry): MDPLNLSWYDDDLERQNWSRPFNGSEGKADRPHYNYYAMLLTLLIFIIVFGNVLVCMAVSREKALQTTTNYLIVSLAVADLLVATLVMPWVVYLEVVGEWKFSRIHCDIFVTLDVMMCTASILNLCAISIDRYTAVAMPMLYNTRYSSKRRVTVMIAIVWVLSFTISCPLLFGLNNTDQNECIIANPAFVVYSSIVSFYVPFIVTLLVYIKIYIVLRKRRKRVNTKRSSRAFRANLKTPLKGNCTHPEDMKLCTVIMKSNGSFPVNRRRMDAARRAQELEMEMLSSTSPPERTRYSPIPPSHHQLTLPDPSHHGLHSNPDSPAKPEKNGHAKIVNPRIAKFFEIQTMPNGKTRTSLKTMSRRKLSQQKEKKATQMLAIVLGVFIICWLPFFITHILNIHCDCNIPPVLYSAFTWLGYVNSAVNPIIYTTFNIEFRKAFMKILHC
# assay_explanation: Binding affinity towards Dopamine receptor D2 was determined in rat striatum using [3H]- spiperone as radioligand
pIC50: −log10 of the molar value.
result_type: pIC50

[1] CC(C)(O)C1SCN(CCCCN2CCN(c3nsc4ccccc34)CC2)C1=O (centres undefined)
[2] CC1SC(C)(C)C(=O)N1CCCCN1CCN(c2cn(-c3ccccc3)c3cc(F)ccc23)CC1 (centres undefined)
[3] CC1SC(C)(C)C(=O)N1CCCCN1CCN(c2cn(-c3ccc(F)cc3)c3ccccc23)CC1 (centres undefined)
Exercise: Arrange the 3 compounds from largest to smallest pIC50. // list labels; follow requested order
Key: 1, 3, 2

[A] CC1(C)SCN(CCCCN2CCN(c3csc4cc(F)ccc34)CC2)C1=O
[B] CC1(C)SCN(CCCCN2CCN(c3cc4ccccc4cn3)CC2)C1=O
Exercise: # argmax over pIC50 for candidates A and B // output: label of the selected item
Key: A
(A: 7.85, B: 5.07)

[I] O=C1CSCN1CCCCN1CCN(c2nsc3ccccc23)CC1
[II] Cc1cccc(N2CCN(CCCCN3C(=O)CSC3(C)C)CC2)c1
[III] O=C1C(CC(F)(F)F)SCN1CCCCN1CCN(c2nsc3ccccc23)CC1 (centres undefined)
[IV] COc1ccccc1N1CCN(CCCCN2C(=O)CSC2(C)C)CC1
Exercise: Order field: pIC50 | Direction: descending (largest first) Answer by listing the labels in the order asked for.
Key: III, I, IV, II
(III: 6.87, I: 6.65, IV: 6.29, II: 5.43)
